Details: human, in vivo, AUCinf, median (min-max), simvastatin administered 4 hours after roxadustat, plasma
Assay endpoint: AUC(0-inf)
Quick note: unit goes after the number.

Entry CCC(C)(C)C(=O)O[C@H]1C[C@@H](C)C=C2C=C[C@H](C)[C@H](CC[C@@H](O)C[C@@H](O)CC(=O)O)[C@H]21 [Simvastatin acid] ; AUC(0-inf) = 70.3 ng·h/mL

----------
Conditions: human, in vivo, tmax, mean (SD), simvastatin administered 10 hours after roxadustat, plasma
Assay endpoint: Tmax
Quick note: unit goes after the number.

Entry CCC(C)(C)C(=O)O[C@H]1C[C@@H](C)C=C2C=C[C@H](C)[C@H](CC[C@@H](O)C[C@@H](O)CC(=O)O)[C@H]21 ; Tmax = 4.4 h

Hello, the source for this data is paper PMC9306950, in case you need it.
